system: Plasmodium falciparum; test: Screen against P. falciparum Asexual Blood Stage (ABS), at 5uM; assay type: functional, Dd2; details: tested at 5 uM
Hit rate of the full screen: of about 65,000 compounds, about 2,100 (3.2%) showed an effect of 50% or more. The median lay at about -52%. What follows is part of a selection rich in strong results, with near analogues and random picks from the rest.
measurementName: INHIBITION (%)
Answers are plain numbers, in %.

Sample answers from the record:
CCS(=O)(=O)N1CCc2nc(N3CCCC3)nc(N(C)C)c2CC1 :: -19.4
O=C(c1ccc2[nH]ccc2c1)N1CCCSCC1CN1CCCC1 (configuration not stated) :: 21.3

Batch of 8 molecules: report INHIBITION for each.
1. Cc1nc(N2CCCC2)nc2c1CN(C(C)C)CC2
2. CC(C)CCC(=O)NC(C)c1nnc2n1CCCCC2 (configuration not stated)
3. CC(C)Nc1nc(N2CCCC2)nc2c1CN(C)CC2
4. CCCN1CCc2nc(N3CCOCC3)nc(NC(C)C)c2C1
5. CC(C)Nc1nc(N2CCCC2)nc2c1CCN(S(C)(=O)=O)CC2
6. COc1nccnc1-c1cc(NC2CCCC2)nc2[nH]ccc12
7. Cc1nc(CN2CCc3nc(NC(C)C)nc(C)c3C2)cs1
8. CC(C)Nc1nc(N2CCCC2)nc2c1CN(C(C)C)CC2

Result:
[-36.3, -147, 48.5, -33.6, 51.5, 18.8, -19.1, 66.8]

Batch of 2 molecules: report INHIBITION for each.
1. Nc1ccnc(-c2cc(NC3CCNCC3)nc3[nH]ccc23)c1
2. Cc1nc(CN2CCc3nc(N4CCCC4)nc(NC(C)C)c3C2)cs1

Result:
[-29.8, 57.3]

====

system: Plasmodium falciparum; test: Screen against P. falciparum Asexual Blood Stage (ABS), at 5uM; assay type: functional, Dd2; details: tested at 5 uM
Out of some 65,000 compounds screened, about 2,100 (3.2%) showed an effect of 50% or more. The median lay at about -52%. The entries come from a sample that favours strong results as a whole.
measurementName: INHIBITION

Sample answers from the record:
CN(C)c1cc(C(=O)N2CCCCC2)ccn1 :: -78.5%
CCCS(=O)(=O)N1CCC2(CC1)CN(CC1CCOC1)c1ccccc12 (configuration not stated) :: 50.8%
N#CCCNC(=O)CN1CC(n2cccn2)C1 :: -21.3%
CN(C)c1cc(C(=O)N2CCCC2)ccn1 :: 55.6%
CCCS(=O)(=O)CCSc1cccc(C#N)c1 :: -113%

Batch of 2 compounds: report INHIBITION for each.
1. CCc1nc(C)cn1C(=O)Nc1ccc(F)cc1
2. CCS(=O)(=O)N1CCC2(CC1)CN(CC1CCOC1)c1ccccc12 (configuration not stated)

Result:
1. -11.7%
2. 23.6%

====

system: Plasmodium falciparum; assay: Screen against P. falciparum Asexual Blood Stage (ABS), at 5uM; type: functional, Dd2; conditions: tested at 5 uM
Screen size: about 65,000 compounds; about 2,100 (3.2%) showed an effect of 50% or more. The median lay at about -52%. Shown is part of a subset that was picked to be rich in strong results.
So basically: INHIBITION at -70% or higher? That is Met. Lower than -70%? That is Not met.

Solved entries:
Cc1nn(C)c(N2CCOCC2)c1CNCc1ccc2c(c1)OCO2 :: Met
CCc1cnc(N2CCC3(CCN(Cc4cccc(C)c4)C3=O)C2)nc1 (stereo unspecified) :: Met
COc1ccc(-n2cccn2)c(CN2CCC3(CCCNC3)C2)c1 (stereo unspecified) :: Met
Cc1cnc(C(=O)NC(CN2CCCC2=O)c2ccccc2)cn1 (stereo unspecified) :: Met
Cn1ncc2c(N[C@H]3CCCC[C@@H]3O)nc(C(C)(C)C)nc21 :: Met
Cc1nn(C)c(N2CCOCC2)c1CNC1CCc2ccccc21 (stereo unspecified) :: Met
CN(Cc1ccco1)C1CCC12CCN(C(=O)N1CCCC1)CC2 (stereo unspecified) :: Not met
O=C(Cc1ccccc1)N1CCC(c2nnc(-c3ccccn3)o2)CC1 :: Met
O=C(CO)N1CCCC2(CCN(c3ccsc3)C2=O)C1 (stereo unspecified) :: Not met
Cc1nn(C)c(N2CCOCC2)c1CNCc1nccs1 :: Met

Task: In plain terms: is recorded INHIBITION at least -70% for Cc1ccc(S(=O)(=O)N2CC[C@@H](O)C2)c(F)c1 ?
Result: Met

Task: In plain terms: is recorded INHIBITION at least -70% for COc1ccc(CN2C[C@H]3CC[C@@H](C2)N(Cc2snnc2C)C3)cc1 ?
Result: Met

Task: In plain terms: is recorded INHIBITION at least -70% for CN1[C@H](Cn2cncn2)C[C@@H]2CN(Cc3ccsc3)CC[C@@H]21 ?
Result: Met

Task: In plain terms: is recorded INHIBITION at least -70% for Cc1nn(C)c(N2CCOCC2)c1CNC1CCc2cc(F)ccc21 (stereo unspecified) ?
Result: Met

Task: In plain terms: is recorded INHIBITION at least -70% for Cc1ccc2c(c1)CCC2NCc1c(C)nn(C)c1N1CCOCC1 (stereo unspecified) ?
Result: Met

Task: In plain terms: is recorded INHIBITION at least -70% for Cc1nn(C)c(N2CCOCC2)c1CNCc1ccc(CO)c(F)c1 ?
Result: Not met

Task: In plain terms: is recorded INHIBITION at least -70% for CCOC1CCC2(CCN(C(=O)c3csnn3)CC2)c2ccccc21 (stereo unspecified) ?
Result: Not met

Task: In plain terms: is recorded INHIBITION at least -70% for Cn1ncc2c(NC3CCC(N)CC3)nc(C(C)(C)C)nc21 (stereo unspecified) ?
Result: Met

Task: In plain terms: is recorded INHIBITION at least -70% for Cn1ccnc1CN1CCN(CC2CC2)[C@@H]2CS(=O)(=O)C[C@@H]21 ?
Result: Not met

Task: In plain terms: is recorded INHIBITION at least -70% for NC(=O)CN1CCC(OCc2ccc(Cl)c(Cl)c2)CC1 ?
Result: Met

Task: In plain terms: is recorded INHIBITION at least -70% for Cc1ccc(C)c(S(=O)(=O)N2CCN(C)C3(CCC(=O)N(C)CC3)C2)c1 (stereo unspecified) ?
Result: Not met

Task: In plain terms: is recorded INHIBITION at least -70% for c1cncc(COCc2nnc3n2CCN(Cc2ccsc2)C3)c1 ?
Result: Not met

Task: In plain terms: is recorded INHIBITION at least -70% for CSC(C)(C)CNC(=O)NC1CCN(CC=C(C)C)CC1 ?
Result: Met
